# Test system: OVCAR-4 ovarian
# experiment-description: NCI tumour cell line growth inhibition, 48 h
measurement-name: log10 of TGI (log10 of the value in µM)
For clarity, the numbers are log10 values of TGI expressed in µM.

Here is how some molecules turned out for log10 of TGI.
CN1CC[C@H](c2c(O)cc(O)c3c(=O)cc(-c4ccccc4Cl)oc23)[C@H](O)C1 : 0.19
O=[N+]([O-])c1ccc(N=Nc2c(O)[nH]c3ccccc23)c([N+](=O)[O-])c1 : 1.49
O=C(Nc1ccccc1)Oc1ccc(C(=S)Nc2ccc(Br)cc2)cc1 : 1.94
C[As](C)SC1OCC(O)C(O)C1O (centres undefined) : 0.88

Notebook: O=C(Cc1nc2ccccc2[nH]c1=O)c1c[nH]c2ccccc12 , log10 of TGI read as 1.86

Notebook: COc1cc2cc(C(=O)N3CC(CCl)c4ccc([N+](C)(C)Cc5ccccc5[N+](=O)[O-])cc43)[nH]c2c(OC)c1OC (centres undefined) , log10 of TGI read as 1.11

Notebook: O=C(Cn1c2ccc(Br)cc2c2nc3ccccc3nc21)Nc1ccccc1 , log10 of TGI read as 2.00

Notebook: CS(=O)(=O)Nc1cc(-c2ccc3ncnc(Nc4cccc(Cl)c4)c3c2)cnc1Cl , log10 of TGI read as 0.96

Notebook: N#C/C(=C(/O)CCl)c1nc2ccccc2o1 , log10 of TGI read as 0.60

Notebook: CCCCCC[C@H]1C(=O)O[C@H](C)[C@H](NC(=O)c2cccc(NC=O)c2OC)C(=O)O[C@@H](C)[C@@H]1OC(=O)CCC (tested in a mixture with another compound) , log10 of TGI read as 1.46

###

# Tested on: NCI-H23 lung
# experiment-description: NCI tumour cell line growth inhibition, 48 h
The following compounds are shown together with reported GI50 values.

CCCCCC[C@H]1C(=O)O[C@H](C)[C@H](NC(=O)c2cccc(NC=O)c2OC)C(=O)O[C@@H](C)[C@@H]1OC(=O)CCC (tested in a mixture with another compound) : 9.53 µM
C=CC(=O)Nc1cc2c(Nc3ccc(F)c(Cl)c3)ncnc2cc1C#CC(C)(C)N1CCN(C)CC1 : 1.72 µM
Nn1c(-c2ccc(Cl)cc2)nc2c(-c3ccc(Cl)cc3)nc3ccc(Cl)cc3c2c1=O : 33 µM

Here is another compound to look at.
Notebook: CCOc1ccc2cc(-c3nn(CC4CCNCC4)c4ncnc(N)c34)ccc2c1 , GI50 read as 13.4 µM

###

# Tested on: OVCAR-3 ovarian
# experiment-description: NCI tumour cell line growth inhibition, 48 h
The following molecules are shown together with reported TGI values.

Here is how some molecules turned out for TGI.
C#C[C@]1(O)CC[C@H]2[C@@H]3CCc4cc(O)ccc4[C@H]3CC[C@@]21C : > 100 µM
CCOc1nc2c(N3CCCC3)nc(N3CCNCC3)nc2nc1NCc1ccccc1 : 2.32 µM
CCOC(=O)C(=CNc1ccc(F)c(F)c1)C(=O)OCC : > 100 µM
O=C1OC(=O)C([Se]c2ccccc2)=C1[Se]c1ccccc1 : > 100 µM
COc1ccc(CCn2cncn2)cc1 : > 100 µM

Notebook: CCCNCCCCC(NC(C)=O)C(=O)NCc1ccccc1 (stereo unspecified) , TGI read as > 100 µM

Notebook: Nc1nc(SCC(=O)c2ccc(Br)cc2)c2[nH]cnc2n1 , TGI read as > 100 µM

Notebook: O=C1NCN(c2ccccc2)C12CCN(CC1COc3ccccc3O1)CC2 (stereo unspecified) , TGI read as > 100 µM

Notebook: COc1cc(C2c3cc4c(cc3C(=O)C3CCC(=O)N32)OCO4)cc(OC)c1O (stereo unspecified) , TGI read as > 50 µM

Notebook: OCC(O)C(O)C(O)C(O)c1nnc2c(-c3ccccc3)nc3ccccc3n12 (stereo unspecified) , TGI read as > 100 µM

Notebook: CCn1c(-c2nonc2N)nc2cnc(Oc3cccc(NC(=O)c4ccc(N(C)C)cc4)c3)cc21 , TGI read as > 25 µM
